# Tested on: T1, human complement factor D purified from serum (human, UniProt P00746 26-253)
# T1 construct: serum-purified (CompTech); also called hCFD-Comptech; CFD
# T1 sequence (P00746 26-253): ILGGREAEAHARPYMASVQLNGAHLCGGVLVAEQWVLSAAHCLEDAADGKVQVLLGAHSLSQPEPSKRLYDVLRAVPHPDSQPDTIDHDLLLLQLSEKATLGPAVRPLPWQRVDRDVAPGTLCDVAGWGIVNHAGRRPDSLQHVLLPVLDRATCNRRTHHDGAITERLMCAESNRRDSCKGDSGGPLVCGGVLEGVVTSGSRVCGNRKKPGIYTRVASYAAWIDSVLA
# Test protocol: SPR MX96
Measurement label: Kd (nM)
One number for each entry, in nM.

Consider the following illustrative entries.
[
  {
    "Binder": "KCD038 (antibody, V domains shown) VH: EVQLQQSGPELVKPGTSMKISCKASGYSFADYTMNWVKQSHGKSLEWIGLINPYNGGTSYNQKFMGKATLTVDKSSSTAYMELLSLTSEDSAVYYCARWGTYSHNYDYAMDYWGQGTSVTVSS VL: DVVMTQTPLSLPVSLGDQASISCRSSQSLVHSNGNTYLYWYFQKPGQSPKFLIYKVSNRFSGISDRFSGSGSGTDFTLKISRVEAEDLGVYFCSQSTHVPPFTFGSGTKLEIK",
    "Uom": "nM",
    "Value reported": 37
  },
  {
    "Binder": "KCD047 (antibody, V domains shown, chimeric) VH: EVQLQQSGAEFVKPGASVRLSCTASGFNIKDTYMHWVKQRPEQGLEWIGRIDPANGYTKDDPKFQGKATITADTSSNTAYLQLSSLTSEDTAVYYCASAMDYWGQGTSVTVSS VL: QIVLTQSPAVMSASPGEKVAMTCSASSSVTYMYWYQQKPGSSPRLLIYDTSNLASGVPVRFSGSGSGTSYSLTISRMEAEDAATYYCQQWSTYPFPFGSGTKLEIK",
    "Uom": "nM",
    "Value reported": 4.4
  }
]

-- ask Identify the reported Kd for the following entry. KCD225 (antibody, V domains shown) VH: QVQLQQSGPELVKPGASVKISCKASGYTFTDYYINWMKQRPGQGLEWIGWIFPGSDSTYYNEKFKGKATLTVDKSSSTAYMLLSSLTSEDSAVYFCARLGYYSHSYYAMDYWGQGTSVTVSS VL: DIQMTQSPASLSVSTGETVTITCRASENIYSNLAWFQQKQGKSPQLLVYAATNLADGVPSRFSGSGSGTQYSLKITSLQSEDFGSYYCQHFWGTPLTFGAGTKLDLK
-- reply 8.7
